Listed below: collision cross section (N2) values for each entry.
Conditions: [M+H]+; instrument: TW; Major Mix IMS/Tof Calibration Kit (Waters)
Metric name: collision cross section (N2) (Å²)

>>> experimental_result("CN1CC[C@]23CCCC[C@H]2[C@H]1Cc1ccc(O)cc13")
161.7
>>> experimental_result("COc1ccc2c3c1O[C@H]1C(OC(C)=O)=CC[C@H]4[C@@H](C2)N(C)CC[C@]314")
178.2
>>> experimental_result("COc1ncnc(NS(=O)(=O)c2ccc(N)cc2)c1OC")
165.3
>>> experimental_result("OCCN1CCN(CC/C=C2/c3ccccc3Sc3ccc(Cl)cc32)CC1")
194

---

Listed below: collision cross section (N2) values for each entry.
Details: [M+Na]+; instrument: TW; calibrated with phosphatidylcholines (ESI+) and phosphatidylethanolamines (ESI-), doubly charged cardiolipins calibrated with poly-DL-…
Metric name: collision cross section (N2) (Å²)

>>> experimental_result("CCCCCCCCCCCCCCCC(=O)OCC(COP(=O)(O)OCC(O)CO)OC(=O)CCCCCCCC1CC1CCCC (stereo unspecified)")
273.08
>>> experimental_result("CCCCCC/C=C\\CCCCCCCC(=O)OCC(COP(=O)(O)OCC(O)CO)OC(=O)CCCCCCCC1CC1CCCCCC (stereo unspecified)")
275.67
>>> experimental_result("CCCCCCCCCCCCCCCC(=O)NCCOP(=O)(O)OC[C@@H](COC(=O)CCCCCCCCCCCCCCC)OC(=O)CCCCCCCC1CC1CCCCCC (stereo partly specified)")
328.3
>>> experimental_result("CCCCCCCCC1CC1CCCCCCCC(=O)OC[C@@H](O)COP(=O)([O-])OCC[NH3+] (stereo partly specified)")
225.77
>>> experimental_result("CCCCCC/C=C\\CCCCCCCC(=O)OC[C@H](COP(=O)(O)OCCNC(=O)CCCCCCCCCCCCCCC)OC(=O)CCCCCCCCCCCCCCC")
325
>>> experimental_result("CCCCCC/C=C\\CCCCCCCC(=O)OC[C@H](COP(=O)(O)OC[C@@H](O)COC(=O)CCCCCCCCCCCCCCC)OC(=O)CCCCCCCCCCCCCCC")
327.7

---

Settings: [M+H-H2O]+; instrument: TW; calibrated with polyalanine and drug standards
Assign labels as follows, please: TRUE for collision cross section (N2) below 200 Å²; FALSE for collision cross section (N2) equal to or exceeding 200 Å².

>>> category("CC1(C)CC2C1CCC1(C)OC1CCC2(C)O (configuration not stated) [2-HYDROXY-5 (6)EPOXY-TETRAHYDROCARYOPHYLLENE]")
"TRUE"
>>> category("CCCCCC(=O)Cc1cc(O)cc(O)c1C(=O)Oc1cc(CC(=O)CCCCC)c(C(=O)O)c(OC)c1")
"FALSE"
>>> category("CNc1ccccc1C(=O)N1CCc2c([nH]c3ccccc23)C1=O")
"TRUE"
>>> category("CC(C)=CCC/C(C)=C/CC/C(C)=C/CC/C(C)=C/CC/C(C)=C/CC/C(C)=C/CC/C(C)=C/CC/C(C)=C/CC/C(C)=C/CO")
"FALSE"
>>> category("CC(C)CCC[C@@H](C)[C@H]1CC[C@H]2[C@@H]3CC[C@H]4C[C@@H](O)CC[C@]4(C)[C@H]3CC[C@]12C")
"FALSE"
>>> category("CNCC(O)c1ccc(O)cc1 (configuration not stated)")
"TRUE"
>>> category("C[C@@H](N)[C@@H](O)c1ccccc1")
"TRUE"

---

Listed below: collision cross section (N2) values for each entry.
Details: [M-H]-; instrument: DT; single field, calibrated with ESI Low Concentration Tuning Mix (Agilent)
Metric name: collision cross section (N2) (Å²)

>>> experimental_result("Nc1nc(=O)c2nccnc2[nH]1 [PTERIN]")
128.1
>>> experimental_result("OC[C@@H](O)C(O)[C@@H](O)CO (stereo partly drawn) [XYLITOL]")
124.8
>>> experimental_result("Nc1nc(=O)c2nc(CNc3ccc(C(=O)N[C@@H](CCC(=O)O)C(=O)O)cc3)cnc2[nH]1 [FOLATE]")
192
>>> experimental_result("O=C(O)c1cc(O)ccc1[O-] [2,5-DIHYDROXYBENZOATE]")
124.6
>>> experimental_result("NC(=O)C[C@H](N)C(=O)O [ASPARAGINE]")
121.9
>>> experimental_result("CC(=O)Oc1cccc(O)c1 [RESORCINOL MONOACETATE]")
126.1
>>> experimental_result("N[C@@H](Cc1ccc(O)c(O)c1)C(=O)O [L-DOPA]")
140.6
>>> experimental_result("O=Cc1ccc(O)cc1 [4-HYDROXYBENZALDEHYDE]")
118.2
>>> experimental_result("O=C([O-])c1cccnc1 [NICOTINATE]")
121
>>> experimental_result("Nc1cc(C(=O)O)ccc1[O-] [3-AMINO-4-HYDROXYBENZOATE]")
125.7
>>> experimental_result("NCCc1ccc(O)c(O)c1 [DOPAMINE]")
131.8
>>> experimental_result("N[C@@H](Cc1cc(I)c(O)c(I)c1)C(=O)O [3,5-DIIODO-L-TYROSINE]")
159.3
>>> experimental_result("Nc1nc(=O)c2ncn([C@@H]3O[C@H](CO)[C@@H](O)[C@H]3O)c2[nH]1 [GUANOSINE]")
162.1

---

Details: [M+H]+; instrument: TW; calibrated with polyalanine
Metric name: collision cross section (N2)

>>> experimental_result("NC(=O)c1cccnc1 [Niacinamide]")
"118 Å²"
>>> experimental_result("O=c1ccn([C@@H]2O[C@H](CO)[C@@H](O)[C@H]2O)c(=O)[nH]1 [Uridine]")
"152 Å²"
>>> experimental_result("Nc1nc(=O)c2ncn([C@@H]3O[C@H](CO)[C@@H](O)[C@H]3O)c2[nH]1 [Guanosine]")
"160 Å²"
>>> experimental_result("Nc1ccn([C@@H]2O[C@H](COP(=O)(O)O)[C@@H](O)[C@H]2O)c(=O)n1 [CMP]")
"163 Å²"
>>> experimental_result("O=c1[nH]c(=O)c2[nH]cnc2[nH]1 [Xanthine]")
"124 Å²"
>>> experimental_result("C[C@@H](O)[C@H](N)C(=O)O [Threonine]")
"122 Å²"
>>> experimental_result("N[C@@H](Cc1cnc[nH]1)C(=O)O [Histidine]")
"127 Å²"
>>> experimental_result("CC(=O)O[C@H](CC(=O)[O-])C[N+](C)(C)C [Acetylcarnitine]")
"142 Å²"
>>> experimental_result("NC(=O)c1ncn([C@@H]2O[C@H](CO)[C@@H](O)[C@H]2O)c1N [Acadesine]")
"152 Å²"
>>> experimental_result("Nc1ncnc2c1ncn2[C@@H]1O[C@H](CO)[C@@H](O)[C@H]1O [Adenosine]")
"151 Å²"
>>> experimental_result("NC(=O)C[C@H](N)C(=O)O [Asparagine]")
"118 Å²"
>>> experimental_result("Nc1ncnc2c1ncn2[C@H]1C[C@H](O)[C@@H](COP(=O)(O)O)O1 [dAMP]")
"164 Å²"
>>> experimental_result("N[C@@H](CS)C(=O)O [Cysteine]")
"113 Å²"
>>> experimental_result("N[C@@H](CCC(=O)N[C@@H](CSSC[C@H](NC(=O)CC[C@H](N)C(=O)O)C(=O)NCC(=O)O)C(=O)NCC(=O)O)C(=O)O [glutathione disulfide]")
"227 Å²"
>>> experimental_result("N[C@@H](CCS)C(=O)O [Homocysteine]")
"124 Å²"
>>> experimental_result("O=C(O)[C@@H]1CCCN1 [Proline]")
"118 Å²"
>>> experimental_result("O=c1nc[nH]c2c1ncn2[C@@H]1O[C@H](CO)[C@@H](O)[C@H]1O [Inosine]")
"153 Å²"
>>> experimental_result("Nc1ncnc2c1ncn2[C@@H]1O[C@H](COP(=O)(O)OP(=O)(O)O)[C@@H](O)[C@H]1O [ADP]")
"181 Å²"
>>> experimental_result("CN(C)CC(=O)O [Dimethylglycine]")
"116 Å²"
>>> experimental_result("Nc1ncnc2nc[nH]c12 [Adenine]")
"119 Å²"
>>> experimental_result("CC(C)C[C@H](N)C(=O)O [Leucine]")
"128 Å²"
>>> experimental_result("Nc1ccn([C@@H]2O[C@H](CO)[C@@H](O)[C@H]2O)c(=O)n1 [Cytidine]")
"148 Å²"
>>> experimental_result("CCCCCCCCCCCCCCCC(=O)OC(CC(=O)[O-])C[N+](C)(C)C (stereo not given) [palmitoylcarnitine]")
"217 Å²"
>>> experimental_result("O=c1nc[nH]c2nc[nH]c12 [Hypoxanthine]")
"120 Å²"
>>> experimental_result("Cn1cnc(C[C@H](N)C(=O)O)c1 [1-Methylhistidine]")
"129 Å²"

---

Listed below: collision cross section (N2) values for each entry.
Conditions: [M+Na]+; instrument: DT; single field, calibrated with Agilent tune mix (Agilent)
Metric name: collision cross section (N2) (Å²)

>>> experimental_result("Nc1ccn([C@H]2C[C@H](O)[C@@H](COP(=O)(O)O)O2)c(=O)n1 [2'-Deoxycytidine 5'-monophosphate]")
164
>>> experimental_result("OC1C(O)C(O)C(O)C(O)C1O (centres undefined) [myo-Inositol]")
148.2
>>> experimental_result("O=C(/C=C/c1ccc(O)c(O)c1)O[C@H](Cc1ccc(O)c(O)c1)C(=O)O [Rosmarinic Acid]")
195.6
>>> experimental_result("OC[C@@H](O)[C@H](O)[C@H](O)[C@@H](O)CO [Dulcitol]")
141.7
>>> experimental_result("OC[C@@H](O)C(O)[C@@H](O)CO (some centres undefined) [Ribitol]")
136.3
>>> experimental_result("CC(C)CCCC(C)CCCC(C)CCCC(C)C(=O)O (centres undefined) [Pristanic acid]")
206.3
>>> experimental_result("O=P(O)(O)OC1O[C@H](CO)[C@@H](O)[C@H](O)[C@@H]1O (stereo partly drawn) [D-Mannose 1-phosphate]")
158.3
>>> experimental_result("C[C@@H]1OC(O)[C@@H](O)[C@H](O)[C@@H]1O (stereo partly drawn) [L-Fucose]")
144.6
>>> experimental_result("N[C@@H](Cc1c[nH]c2ccc(O)cc12)C(=O)O [5-Hydroxy-L-tryptophan]")
152.2
